Test: logP by HPLC on reversed-phase columns (EEC directive 79/831 Annex V.A8)
Settings: pH 7.8

[
  {
    "MOLECULE": "CC(C)[Si](c1ncc(C(O)(c2ccc(Cl)cc2)C2(Oc3ccccc3)CC2)o1)(C(C)C)C(C)C (stereo not shown) [Compound 9]",
    "chromatographic logP": 7.36
  }
]

###

Assay: physchem
Conditions: pH 7.8
The following molecules are shown together with reported chromatographic logP values.

[
  {
    "MOLECULE": "OC(c1cnc(Cl)s1)(c1ccc(F)cc1F)C1(Oc2ccc(F)cc2F)CC1 (centres unmarked)",
    "chromatographic logP": 4.23
  },
  {
    "MOLECULE": "OC(c1cncs1)(c1ccc(F)cc1F)C1(Oc2ccc(F)cc2F)CC1 (centres unmarked)",
    "chromatographic logP": 3.3
  },
  {
    "MOLECULE": "OC(Cc1cncs1)(c1ccc(Cl)cc1)C1(Oc2ccc(F)cc2)CC1 (centres unmarked)",
    "chromatographic logP": 3.65
  },
  {
    "MOLECULE": "OC(Cc1cnc(Cl)s1)(c1ccc(Cl)cc1)C1(Oc2ccc(F)cc2)CC1 (centres unmarked)",
    "chromatographic logP": 4.53
  },
  {
    "MOLECULE": "OC(c1ccc(Cl)cc1)(c1cnco1)C1(Oc2ccccc2)CC1 (centres unmarked)",
    "chromatographic logP": 3.43
  }
]

###

The following molecules are shown together with reported chromatographic logP values.
Test: physchem
Details: pH 2.7

[
  {
    "MOLECULE": "OC(Cc1cnc(Cl)s1)(c1ccc(Cl)cc1)C1(Oc2ccc(F)cc2)CC1 (stereo not shown) [Compound 3]",
    "chromatographic logP": 4.55
  },
  {
    "MOLECULE": "OC(Cc1cncs1)(c1ccc(Cl)cc1)C1(Oc2ccc(F)cc2)CC1 (stereo not shown) [Compound 2]",
    "chromatographic logP": 3.62
  },
  {
    "MOLECULE": "CC(C)(Cc1ccc(Cl)cc1)C(C)(O)c1cncs1 (stereo not shown) [Compound 22]",
    "chromatographic logP": 3.11
  },
  {
    "MOLECULE": "CC(C)(C)C(O)(c1cncs1)C(C)(C)Oc1ccc(Cl)cc1 (stereo not shown) [Compound 16]",
    "chromatographic logP": 4.13
  },
  {
    "MOLECULE": "OC(c1cnc(Cl)s1)(c1ccc(F)cc1F)C1(Oc2ccc(F)cc2F)CC1 (stereo not shown) [Compound 12]",
    "chromatographic logP": 4.29
  },
  {
    "MOLECULE": "OC(c1ccc(Cl)cc1)(c1cnco1)C1(Oc2ccccc2)CC1 (stereo not shown) [Compound 8]",
    "chromatographic logP": 3.37
  },
  {
    "MOLECULE": "OC(c1cncs1)(c1ccc(F)cc1F)C1(Oc2ccc(F)cc2F)CC1 (stereo not shown) [Compound 11]",
    "chromatographic logP": 3.35
  }
]

###

Details: pH 2.7

[
  {
    "MOLECULE": "CC(C)(Cc1ccc(Br)cc1)C(C)(O)c1cncs1 (stereo not drawn)",
    "log P [b]": "3.22^[b]"
  },
  {
    "MOLECULE": "CC(C)(Cc1ccc(C(F)(F)F)cc1)C(C)(O)c1cncs1 (stereo not drawn)",
    "log P [b]": "3.34^[b]"
  },
  {
    "MOLECULE": "CC(C)(Cc1ccc(F)cc1Cl)C(C)(O)c1cncs1 (stereo not drawn)",
    "log P [b]": "3.14^[b]"
  },
  {
    "MOLECULE": "CC(c1ccc(F)cc1Cl)C(O)(c1cncs1)C(C)(CF)CF (stereo not drawn)",
    "log P [b]": "3.46^[b]"
  },
  {
    "MOLECULE": "OC(c1ccc(Br)cc1)(c1cnco1)C1(Oc2ccc(F)cc2)CC1 (stereo not drawn)",
    "log P [b]": 3.54
  },
  {
    "MOLECULE": "OC(c1cnco1)(c1ccc(F)cc1F)C1(Oc2ccc(F)cc2F)CC1 (stereo not drawn)",
    "log P [b]": 3.07
  },
  {
    "MOLECULE": "CC(C)(C)C(O)(c1cncs1)C(C)(C)Oc1ccc(I)cc1F (stereo not drawn)",
    "log P [b]": "4.7^[b]"
  },
  {
    "MOLECULE": "CC(C)(C)C(O)(c1cncs1)C(C)(C)Oc1ccc(Br)cc1 (stereo not drawn)",
    "log P [b]": "4.27^[b]"
  },
  {
    "MOLECULE": "CC(C)(Cc1ccc(I)cc1)C(C)(O)c1cncs1 (stereo not drawn)",
    "log P [b]": "3.45^[b]"
  },
  {
    "MOLECULE": "OC(c1ccc(Br)cc1)(c1cnco1)C1(Oc2ccc(F)cc2F)CC1 (stereo not drawn)",
    "log P [b]": 3.59
  },
  {
    "MOLECULE": "COc1ccc(OC(C)(C)C(O)(c2cncs2)C(C)(C)C)cc1 (stereo not drawn)",
    "log P [b]": "3.49^[b]"
  },
  {
    "MOLECULE": "OC(c1ccc(Br)cc1)(c1cnco1)C1(Oc2ccccc2)CC1 (stereo not drawn)",
    "log P [b]": 3.51
  }
]
